- measurement-description: amyloid nucleation score (Sup35N fusion, yeast selection) (log enrichment); library NNK3; higher = more nucleation; inactive = no reads after selection;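 note: zero at mode of non-aggregating sequences after 7 days selection at 30°C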
observation-type: amyloid nucleation score

A selection of reference data follows.
>>> result("NKQNEVSRSCLSRCRYFGGD")
"inactive"
>>> result("ASRTAHVSEVQFGCAPGSER")
"inactive"
>>> result("VFTSGLCEKS")
0.195
>>> result("NLLSSSFLPPGWRSLKLGSS")
"inactive"
>>> result("VVFGHAFYVTSHKTVLCSFG")
"inactive"

[Q] Quick one: amyloid nucleation score for YFYLSICDVSMVGSEFIYSR ?
[A] 0.373

[Q] Quick one: amyloid nucleation score for CKNQHFLSLIGFLYHIDPKR ?
[A] 0.709

[Q] Quick one: amyloid nucleation score for FGEMRFCFCAG ?
[A] inactive

[Q] Quick one: amyloid nucleation score for SSAIYVMRLPQCMAECSRPR ?
[A] inactive

[Q] Quick one: amyloid nucleation score for YSLRVHSAYIVVKYII ?
[A] inactive

====

- measurement-description: amyloid nucleation score (Sup35N fusion, yeast selection) (log enrichment); library NNK2; higher = more nucleation; inactive = no reads after selection
Mark 1 for reported amyloid nucleation score of -0.2 or greater; mark 0 for anything smaller.

>>> discrete_label("LMMKEPDPSVC")
1
>>> discrete_label("RNVGDLMSRGSYYSIPSGNL")
0
>>> discrete_label("FTNIGSEYDMTGLNEGSSMP")
0
>>> discrete_label("ATIGSLWRNYNERLFST")
1
>>> discrete_label("DFDVEA")
1

[Q] Is amyloid nucleation score for YHGVLSFLII at or above -0.2?
[A] 1

[Q] Is amyloid nucleation score for AHRYGR at or above -0.2?
[A] 1

[Q] Is amyloid nucleation score for MGDTRNGYFSRMLFYTDCPW at or above -0.2?
[A] 1

[Q] Is amyloid nucleation score for RRMTCALYVIRWFSVHYFYL at or above -0.2?
[A] 0

[Q] Is amyloid nucleation score for GFLLCVSGVYLGCLLVNSSI at or above -0.2?
[A] 1

[Q] Is amyloid nucleation score for QMQPTGLRQNLSSPWPFVGE at or above -0.2?
[A] 1

[Q] Is amyloid nucleation score for SFSVYRFVGTLSGYADLGLG at or above -0.2?
[A] 1

[Q] Is amyloid nucleation score for PFYVSRRVCKYAF at or above -0.2?
[A] 0

[Q] Is amyloid nucleation score for DAVFGTCSLFCRTCAKASFG at or above -0.2?
[A] 1

[Q] Is amyloid nucleation score for SLSNCSTWTSF at or above -0.2?
[A] 1

[Q] Is amyloid nucleation score for TRNNLSVERQKVRAMSCEKC at or above -0.2?
[A] 1

====

Documented amyloid nucleation score across a set of substances
- measurement-description: amyloid nucleation score (Sup35N fusion, yeast selection) (log enrichment); library NNK1; higher = more nucleation; inactive = no reads after selection
Hey, just send me the number, nothing else.

[Q] Quick one: amyloid nucleation score for FVLQKGYK ?
[A] 0.2

[Q] Quick one: amyloid nucleation score for VDISEGCVSPVCFLMPCLMH ?
[A] -0.238

[Q] Quick one: amyloid nucleation score for RRHAHLWLYLGNLGCWLEEV ?
[A] -0.139

[Q] Quick one: amyloid nucleation score for SLLSAMDLPPFLSYRLSPRW ?
[A] 0.059

[Q] Quick one: amyloid nucleation score for DKLKLNRVRSSISSYNKQNK ?
[A] 1.06

[Q] Quick one: amyloid nucleation score for QMNGWVCCFSQGQRMFVLLM ?
[A] 0.977

[Q] Quick one: amyloid nucleation score for PTRYRKLKRQAKATYIHSNP ?
[A] -0.552

[Q] Quick one: amyloid nucleation score for FNAAYIAGVGNLMTWDNSSN ?
[A] -1.07

[Q] Quick one: amyloid nucleation score for RQPANEELPFSVTGK ?
[A] -0.892

[Q] Quick one: amyloid nucleation score for NFELLPYLSLNWSHFFCSCF ?
[A] 6.56

[Q] Quick one: amyloid nucleation score for FMLYTTVTERAWRHLN ?
[A] 0.395

[Q] Quick one: amyloid nucleation score for KAPKYRDRRVGVNVKYWYMP ?
[A] 0.058

[Q] Quick one: amyloid nucleation score for LNTQVRVGDKVCLRIFARLL ?
[A] 0.944

[Q] Quick one: amyloid nucleation score for VNSGVNCMTVFVVVSLLSCG ?
[A] 2.98

[Q] Quick one: amyloid nucleation score for FRSFLVPACYHGFGDGYMFF ?
[A] -0.439

[Q] Quick one: amyloid nucleation score for ILFDLQPKFVRR ?
[A] 0.693

[Q] Quick one: amyloid nucleation score for VERTCGVGTRLFTCYGQVAI ?
[A] -0.3

[Q] Quick one: amyloid nucleation score for QHPIWCNRSPLTHDRDTVG ?
[A] 0.239

====

- measurement-description: amyloid nucleation score (Sup35N fusion, yeast selection) (log enrichment); library NNK3; higher = more nucleation; inactive = no reads after selection
observation-type: amyloid nucleation score

A selection of reference data follows.
>>> result("FCCLEWNFIFNTSGHVSNNV")
3.31
>>> result("DFFNWWSSVWFYLLMGRKVE")
"inactive"
>>> result("LSTENLLVYMWDRLNSILKG")
"inactive"
>>> result("CSLQLASDQGFSQRDDCTVH")
"inactive"

Moving on to another sequence below.
[Q] Quick one: amyloid nucleation score for LTFISLSLGPDSRFSMTKYY ?
[A] inactive

====

- measurement-description: amyloid nucleation score (Sup35N fusion, yeast selection) (log enrichment); library NNK3; higher = more nucleation; inactive = no reads after selection
observation-type: amyloid nucleation score

A selection of reference data follows.
>>> result("MCMSAFEGSSIICDCMVVLL")
1.85
>>> result("ELNRDDCEGSSATPQRDFNV")
"inactive"
>>> result("CRLRGKLIYLLIMDGTKE")
"inactive"
>>> result("ATMKWFCIKHSFFPIGTCYA")
"inactive"
>>> result("LIFTTTRSLFTALPGFEYKD")
"inactive"

[Q] Quick one: amyloid nucleation score for ALSHITDLQFLYSIVFQAHM ?
[A] -0.674

[Q] Quick one: amyloid nucleation score for TRGLWYQHVDHSTFRLKEST ?
[A] inactive

[Q] Quick one: amyloid nucleation score for MALEVFF ?
[A] inactive

[Q] Quick one: amyloid nucleation score for WKRKRRLRELGITKVILRVL ?
[A] inactive

====

Documented amyloid nucleation score across a set of substances
- measurement-description: amyloid nucleation score (Sup35N fusion, yeast selection) (log enrichment); library NNK1; higher = more nucleation; inactive = no reads after selection
Hey, just send me the number, nothing else.

>>> readout_number("LRYLGMMVRREKIEVINLNY")
0.329
>>> readout_number("EAVVRRLSEDSCMELSSDCR")
0.485
>>> readout_number("SILGRWDHDLWNLFGARSLV")
-0.148
>>> readout_number("VWFPKTDTGVTS")
0.428
>>> readout_number("SLLALLPLQYWVYRIKNLVH")
-0.057

[Q] Quick one: amyloid nucleation score for RTICKVIFVSEVKSLFWNMS ?
[A] 1.87

[Q] Quick one: amyloid nucleation score for HSDFQDFMTDFGHDAFFKDW ?
[A] 0.096

[Q] Quick one: amyloid nucleation score for IRSLLYYLFGFLMFWVIRIW ?
[A] 0.226

====

- measurement-description: amyloid nucleation score (Sup35N fusion, yeast selection) (log enrichment); library NNK3; higher = more nucleation; inactive = no reads after selection
observation-type: amyloid nucleation score

A selection of reference data follows.
>>> result("RNKVKQTE")
"inactive"
>>> result("QNSGFWIRMH")
-1.38
>>> result("WNHLDERANELCCN")
"inactive"
>>> result("MTVWNSWNINIVWVMFLSA")
"inactive"

[Q] Quick one: amyloid nucleation score for FIWAREFSVLRSHRRWPTEN ?
[A] inactive

[Q] Quick one: amyloid nucleation score for LGVPSIPGT ?
[A] inactive

[Q] Quick one: amyloid nucleation score for SFPWSCPASYSYQGCWWERD ?
[A] inactive

[Q] Quick one: amyloid nucleation score for YVCCYARNDRRFSWERRHLS ?
[A] inactive

[Q] Quick one: amyloid nucleation score for FFRFRKCAM ?
[A] inactive

[Q] Quick one: amyloid nucleation score for YLSGKLFTRAP ?
[A] inactive

====

- measurement-description: amyloid nucleation score (Sup35N fusion, yeast selection) (log enrichment); library NNK2; higher = more nucleation; inactive = no reads after selection
Documented amyloid nucleation score across a set of substances
Hey, just send me the number, nothing else.

A selection of reference data follows.
>>> readout_number("PSSSVCNINCYSKRSDRSVV")
-0.09
>>> readout_number("FYINVRLYARVACRCMRVPC")
5.4
>>> readout_number("YVYVDYWICTIWCVLCNLCS")
0.256
>>> readout_number("YDVSYYCNCIAVLKSRLREL")
5.2
>>> readout_number("LYQNSTILWLCCLWPVPYSG")
9.92

[Q] Quick one: amyloid nucleation score for TSLFVLVVGLGLCK ?
[A] 2.91

[Q] Quick one: amyloid nucleation score for KVQHLQR ?
[A] 0.403

[Q] Quick one: amyloid nucleation score for YYMVSP ?
[A] -0.093
